Test: Quantum efficiency of fluorescence, measured versus a reference dye
Type: physicochemical
Conditions: MeOH
property: Φ (quantum efficiency of fluorescence)

{"compound": "CC[N+]1=C(/C=C/C=C/C=C2/N(CCCCS(=O)(=O)[O-])c3ccccc3C2(C)CCCCC(=O)O)C(C)(C)c2cc(C)ccc21 (stereo not shown)", "Φ (quantum efficiency of fluorescence)": 0.17}
{"compound": "CCN1C(=CC=CC=CC2=[N+](CCCCS(=O)(=O)[O-])c3ccc(C)cc3C2(C)CCCCC(=O)O)C(C)(C)c2cc(C)ccc21 (stereo not shown)", "Φ (quantum efficiency of fluorescence)": 0.16}

A: CC1(C)C(=CC=CC=CC2=[N+](CCCCS(=O)(=O)[O-])c3ccc(CCC(=O)O)cc3C2(C)C)N(CCCCS(=O)(=O)[O-])c2ccccc21.[Na+]
B: CC[N+]1=C(C=CC=CC=C2N(CCCCS(=O)(=O)[O-])c3ccccc3C2(C)C)C(C)(CCCCC(=O)O)c2ccccc21 (stereo not shown)
Data request: # argmax over Φ (quantum efficiency of fluorescence) for candidates A and B Please respond with the label that marks your chosen entry.
Data returned: B
(B: 0.26, A: 0.17)

----------
Assay: Relative efficiency of fluorescence / absolute sensitivity of label, normalized to dye A30 in PBS
Assay type: physicochemical
Conditions: MeOH; excitation 635 nm, record 670 nm
property: Sensitivity of record 635/ 670

// known answers, use as guide
{"compound": "CCN1C(=CC=CC=CC2=[N+](CCCCS(=O)(=O)[O-])c3ccc(C)cc3C2(C)CCCCC(=O)O)C(C)(C)c2ccccc21 (stereo not drawn)", "Sensitivity of record 635/ 670": 0.243}
{"compound": "CCN1/C(=C/C=C/C=C/C2=[N+](CC)c3ccccc3C2(C)C)C(C)(CCCCC(=O)O)c2cc(S(=O)(=O)[O-])ccc21 (stereo not drawn)", "Sensitivity of record 635/ 670": 0.424}

P: CCN1C(=CC=CC=CC2=[N+](CCCCS(=O)(=O)[O-])c3ccc(C)cc3C2(C)CCCCC(=O)O)C(C)(C)c2cc(C)ccc21 (stereo not drawn)
Q: CC[N+]1=C(C=CC=CC=C2N(CCCCS(=O)(=O)[O-])c3ccccc3C2(C)C)C(C)(CCCCC(=O)O)c2ccccc21 (stereo not drawn)
R: CC[N+]1=C(/C=C/C=C/C=C2/N(CCCCS(=O)(=O)[O-])c3ccccc3C2(C)CCCCC(=O)O)C(C)(C)c2cc(C)ccc21 (stereo not drawn)
Data request: # ascending order, key=Sensitivity of record 635/ 670 // list labels; follow requested order
Data returned: P, R, Q

----------
Test: Molar extinction coefficient in methanol and PBS
Assay type: physicochemical
Design: unit not given here
Details: MeOH
property: ε·10^-5

{"compound": "CCN1C(=CC=CC=CC2=[N+](CCCCS(=O)(=O)[O-])c3ccc(C)cc3C2(C)CCCCC(=O)O)C(C)(C)c2cc(C)ccc21 (stereo not drawn)", "assay.result": 2.05}
{"compound": "CC[N+]1=C(C=CC=CC=C2N(CCCCS(=O)(=O)[O-])c3ccccc3C2(C)C)C(C)(CCCCC(=O)O)c2ccccc21 (stereo not drawn)", "assay.result": 2.20}
{"compound": "CCN1/C(=C/C=C/C=C/C2=[N+](CC)c3ccc(S(=O)(=O)[O-])cc3C2(C)C)C(C)(CCCCC(=O)O)c2ccccc21 (stereo not drawn)", "assay.result": 1.78}
{"compound": "CCN1C(=CC=CC=CC2=[N+](CCCCS(=O)(=O)[O-])c3ccccc3C2(C)CCCCC(=O)O)C(C)(C)c2ccccc21 (stereo not drawn)", "assay.result": 2.47}
{"compound": "CCN1/C(=C/C=C/C=C/C2=[N+](CC)c3ccccc3C2(C)C)C(C)(CCCCC(=O)O)c2cc(S(=O)(=O)[O-])ccc21 (stereo not drawn)", "assay.result": 2.07}
{"compound": "CC[N+]1=C(/C=C/C=C/C=C2/N(CCCCS(=O)(=O)[O-])c3ccc(C)cc3C2(C)CCCCC(=O)O)C(C)(C)c2cc(C)cc(C)c21 (stereo not drawn)", "assay.result": 2.13}
{"compound": "CC[N+]1=C(/C=C/C=C/C=C2/N(CCCCS(=O)(=O)[O-])c3ccccc3C2(C)CCCCC(=O)O)C(C)(C)c2cc(C)cc(C)c21 (stereo not drawn)", "assay.result": 1.93}
{"compound": "CCN1C(=CC=CC=CC2=[N+](CCCCS(=O)(=O)[O-])c3ccc(C)cc3C2(C)CCCCC(=O)O)C(C)(C)c2ccccc21 (stereo not drawn)", "assay.result": 2.14}
{"compound": "CC[N+]1=C(/C=C/C=C/C=C2/N(CCCCS(=O)(=O)[O-])c3ccccc3C2(C)CCCCC(=O)O)C(C)(C)c2cc(C)ccc21 (stereo not drawn)", "assay.result": 2.01}

----------
Assay: Absorption and fluorescence maxima of the dyes
Type: physicochemical
Conditions: MeOH
property: λmax^abs (nm)

{"compound": "CCN1/C(=C/C=C/C=C/C2=[N+](CC)c3ccc(S(=O)(=O)[O-])cc3C2(C)C)C(C)(CCCCC(=O)O)c2ccccc21 (stereo not drawn) [A7]", "measurement.units": "nm", "λmax^abs": 647}
{"compound": "CC[N+]1=C(/C=C/C=C/C=C2/N(CCCCS(=O)(=O)[O-])c3ccccc3C2(C)CCCCC(=O)O)C(C)(C)c2cc(C)cc(C)c21 (stereo not drawn) [A3]", "measurement.units": "nm", "λmax^abs": 652}
{"compound": "CC[N+]1=C(C=CC=CC=C2N(CCCCS(=O)(=O)[O-])c3ccccc3C2(C)C)C(C)(CCCCC(=O)O)c2ccccc21 (stereo not drawn) [A8]", "measurement.units": "nm", "λmax^abs": 647}
{"compound": "CCN1C(=CC=CC=CC2=[N+](CCCCS(=O)(=O)[O-])c3ccc(C)cc3C2(C)CCCCC(=O)O)C(C)(C)c2cc(C)ccc21 (stereo not drawn) [A5]", "measurement.units": "nm", "λmax^abs": 654}
{"compound": "CC[N+]1=C(/C=C/C=C/C=C2/N(CCCCS(=O)(=O)[O-])c3ccccc3C2(C)CCCCC(=O)O)C(C)(C)c2cc(C)ccc21 (stereo not drawn) [A2]", "measurement.units": "nm", "λmax^abs": 649}
{"compound": "CCN1/C(=C/C=C/C=C/C2=[N+](CC)c3ccccc3C2(C)C)C(C)(CCCCC(=O)O)c2cc(S(=O)(=O)[O-])ccc21 (stereo not drawn) [A9]", "measurement.units": "nm", "λmax^abs": 648}
{"compound": "CCN1C(=CC=CC=CC2=[N+](CCCCS(=O)(=O)[O-])c3ccc(C)cc3C2(C)CCCCC(=O)O)C(C)(C)c2ccccc21 (stereo not drawn) [A4]", "measurement.units": "nm", "λmax^abs": 651}
{"compound": "CCN1C(=CC=CC=CC2=[N+](CCCCS(=O)(=O)[O-])c3ccccc3C2(C)CCCCC(=O)O)C(C)(C)c2ccccc21 (stereo not drawn) [A1]", "measurement.units": "nm", "λmax^abs": 644}
{"compound": "CC[N+]1=C(/C=C/C=C/C=C2/N(CCCCS(=O)(=O)[O-])c3ccc(C)cc3C2(C)CCCCC(=O)O)C(C)(C)c2cc(C)cc(C)c21 (stereo not drawn) [A6]", "measurement.units": "nm", "λmax^abs": 654}

----------
Test: Absorption and fluorescence maxima of the dyes
Assay type: physicochemical
Conditions: PBS
property: λmax^em (nm)

{"molecule": "CCN1C(=CC=CC=CC2=[N+](CCCCS(=O)(=O)[O-])c3ccccc3C2(C)CCCCC(=O)O)C(C)(C)c2ccccc21 (stereo not drawn)", "λmax^em (nm)": 657}
{"molecule": "CC[N+]1=C(/C=C/C=C/C=C2/N(CCCCS(=O)(=O)[O-])c3ccccc3C2(C)CCCCC(=O)O)C(C)(C)c2cc(C)cc(C)c21 (stereo not drawn)", "λmax^em (nm)": 665}
{"molecule": "CCN1/C(=C/C=C/C=C/C2=[N+](CC)c3ccc(S(=O)(=O)[O-])cc3C2(C)C)C(C)(CCCCC(=O)O)c2ccccc21 (stereo not drawn)", "λmax^em (nm)": 663}
{"molecule": "CC[N+]1=C(/C=C/C=C/C=C2/N(CCCCS(=O)(=O)[O-])c3ccc(C)cc3C2(C)CCCCC(=O)O)C(C)(C)c2cc(C)cc(C)c21 (stereo not drawn)", "λmax^em (nm)": 676}
{"molecule": "CC[N+]1=C(/C=C/C=C/C=C2/N(CCCCS(=O)(=O)[O-])c3ccccc3C2(C)CCCCC(=O)O)C(C)(C)c2cc(C)ccc21 (stereo not drawn)", "λmax^em (nm)": 662}
{"molecule": "CC[N+]1=C(C=CC=CC=C2N(CCCCS(=O)(=O)[O-])c3ccccc3C2(C)C)C(C)(CCCCC(=O)O)c2ccccc21 (stereo not drawn)", "λmax^em (nm)": 660}
{"molecule": "CCN1C(=CC=CC=CC2=[N+](CCCCS(=O)(=O)[O-])c3ccc(C)cc3C2(C)CCCCC(=O)O)C(C)(C)c2cc(C)ccc21 (stereo not drawn)", "λmax^em (nm)": 670}
{"molecule": "CCN1/C(=C/C=C/C=C/C2=[N+](CC)c3ccccc3C2(C)C)C(C)(CCCCC(=O)O)c2cc(S(=O)(=O)[O-])ccc21 (stereo not drawn)", "λmax^em (nm)": 659}
{"molecule": "CCN1C(=CC=CC=CC2=[N+](CCCCS(=O)(=O)[O-])c3ccc(C)cc3C2(C)CCCCC(=O)O)C(C)(C)c2ccccc21 (stereo not drawn)", "λmax^em (nm)": 665}
